Readout label: melting point

Example compounds with recorded melting point:
Compound | Observed
CNC(=O)N(C)c1nc(CC(=O)Nc2nnc(C(C)(C)C)s2)cs1 | 175 to 177 °C
O=C(c1ccccc1)c1ccc(Nc2nc(Nc3ccc(C(=O)c4ccccc4)cc3)nc(-c3cccn3Cc3ccccc3)n2)cc1 | 115 to 118 °C
COc1ccc(-c2cc3cc(OC)cc(C(=O)N(C)OC)c3o2)cc1 | 109 to 111 °C
CCCC1=C(C(=O)OCC)C(c2csc3ccccc23)c2c[nH]nc2N1 (stereo not drawn) | 222 °C
CCCc1cc(NCc2ccc(Cl)cc2)nc(SCC#N)n1 | 68 to 70 °C
CN1C(=O)CN=C(c2ccccc2F)c2cc(NC(=O)NCCOC(C)(C)C)ccc21 | 177 °C
COc1ccc(OC2CN(S(=O)(=O)c3ccc(C)cc3)CCc3ccccc32)cc1 (stereo not drawn) | 84 to 85 °C
CSc1ccc(NC(=O)N(C)O)cc1 | 146 to 148 °C
CCCn1c(COC)nc2c(N)nc3ccc(OCC(=O)N4CCOCC4)cc3c21 | 201 to 204 °C
COc1ccc(-c2cc(C(=O)Nc3cccc(F)n3)c3ccccc3n2)cc1 | 174 to 176 °C

Quick note, melting point for O=C(O)c1cccc(CCl)c1 landed at 134 to 136 °C

response.value for COC(=O)c1cc(N(C)C)c2cc(Cc3ccc(F)cc3)cnc2c1O (field: melting point) = 62 to 63 °C

For this compound ( CC(C)(C)c1cc(CCN=C(O)c2cc(C(O)=NCCc3cc(C(C)(C)C)c(O)c(C(C)(C)C)c3)c(C(=O)O)cc2C(=O)O)cc(C(C)(C)C)c1O ), measured melting point is 231 to 233 °C

Reported melting point for Cc1cc(-c2ccc(OC3SCC(O)C(O)C3O)c(F)n2)ccn1 (stereo not drawn) was 159 to 162 °C

For this compound ( CC(=O)NC[C@H]1CN(c2ccc(-c3noc(C(F)(F)F)n3)c(F)c2)C(=O)O1 ), measured melting point is 192 to 193 °C

Sample COc1ccc(CN2C(=O)C3(COc4cc5onc(N)c5cc43)c3ccccc32)cc1 (stereo not drawn) ; melting point observed: 214 to 216 °C

Sample CC1C2C(CON2C)CN1c1c(F)cc2c(=O)c(C(=O)O)cn(C3CC3)c2c1F (stereo not drawn) ; melting point observed: 197 to 199 °C

melting point reading for O=C(O)Cc1ccc2c(c1)-c1ccccc1C2 : 166 to 168 °C

----------
Readout label: melting point

Guide cases for melting point, answers given:
Compound | melting point
N#CCNC(=O)C1CC1 | 91 to 92 °C
COC(=O)c1ccc(OC)nc1OC | 52 to 54 °C
N#Cc1cn(C(CO)CCc2ccccc2)cn1 (stereo unspecified) | 111 to 115 °C

// sample c1ccc(C(OC2CCN(CCCCCNc3ccc4ncnn4n3)CC2)c2ccccc2)cc1 , its melting point was 96 to 98 °C

For this compound ( CCCCC(Cc1cccnc1)(C(=O)NO)S(=O)(=O)c1ccc(OC)cc1 (stereo unspecified) ), measured melting point is 65 °C

# melting point of O=C(O)CCc1cc(C=Nc2ccccc2O)c(O)c(C=Nc2ccccc2O)c1 = 204 to 205 °C

----------
Readout label: melting point

Molecule | Readout label | Observed
CC(Oc1ccc(Oc2cnc3cc(Cl)ccc3n2)cc1)C(=O)Nc1ccc(OC(F)(F)C(Cl)(Cl)Cl)cc1 (stereo unspecified) | melting point | 139 to 141 °C
O=C(O)Cn1c(-c2ccccc2Cl)nc2cccnc21 | melting point | 227 to 228 °C
CN1Cc2c(C(N)=O)ncn2-c2ccc(F)cc2C1=O | melting point | 272 to 273 °C
CC(C)Cc1ccc(C(=O)O)cc1C#N | melting point | 118 °C
Cc1nc2cc(Br)ccc2s1 | melting point | 84 to 85 °C

Now, please, on to the next molecule.
Lab book: melting point of O=C(Nc1cccc([N+](=O)[O-])c1)c1ccc([N+](=O)[O-])cc1 noted as 229 to 232 °C

src = a melting point compilation (Tetko et al.; mined from patent text by program, amines drawn as free bases though some values may be those of a salt)
